# System: HL-60(TB) leukemia
# measurement description: NCI-60 one-dose screen, 48 h (100 = growth as untreated, 0 = no growth, -100 = all killed)
# study conditions: 10 µM unless noted
This is part of a sample that, as a whole, favours compounds with a hit. Of some 83,000 tested, about 20% had one in any assay.
Parameter: growth. Scope: all listed entries.
A number alone suffices; assume %.

Study these solved cases before continuing.
C=CC(=O)Nc1cc(Nc2nccc(-c3cn(C)c4ccccc34)n2)c(OC)cc1N(C)CCN(C)C :: -65.8
COc1ccc(-n2c(N)c(-c3nc4ccccc4[nH]3)cc(C#N)c2=O)cc1 :: 99
COc1cc(-c2nc(-c3nnc(-c4ccccc4Cl)o3)c3ccccn23)cc(OC)c1OC :: 67.1
Cc1ccc(NC(=O)c2sc3nc4c(cc3c2N)C(=O)CCC4)cc1C :: -10.6
CC(=O)OCC1O[C@@H](OC(C)=O)[C@@H](NC(=O)NS(=O)(=O)c2ccccc2)C(OC(C)=O)[C@@H]1OC(C)=O (stereo not given in full) :: 95.7
N/C(=N\N=C\c1ccc2c(c1)OCO2)N/N=C\c1ccc2c(c1)OCO2 :: 80

q: Requested read-out: growth. Entry: "CCOC(=O)CSc1nc2sc3c(c2c(=O)n1-c1ccccc1)CCCCC3"
a: 109

q: // next record "CNC(=O)c1cc(Oc2cccc3nc(Nc4ccc(Cl)c(F)c4)ccc23)ccn1"
a: 95

q: // next record "C=CCCCCCCCCC(=O)[O][Sn]([CH2]CCC)([CH2]CCC)[CH2]CCC"
a: -15.1

q: // next record "COc1ccc2c(c1)c(-c1nonc1-c1cn(C)c3ccc(OC)cc13)cn2C"
a: -1.01
